- assaySystem: human IL-21R expressed on cells (human, UniProt Q9HBE5 20-538)
- Sequence (Q9HBE5 20-538 limits assumed): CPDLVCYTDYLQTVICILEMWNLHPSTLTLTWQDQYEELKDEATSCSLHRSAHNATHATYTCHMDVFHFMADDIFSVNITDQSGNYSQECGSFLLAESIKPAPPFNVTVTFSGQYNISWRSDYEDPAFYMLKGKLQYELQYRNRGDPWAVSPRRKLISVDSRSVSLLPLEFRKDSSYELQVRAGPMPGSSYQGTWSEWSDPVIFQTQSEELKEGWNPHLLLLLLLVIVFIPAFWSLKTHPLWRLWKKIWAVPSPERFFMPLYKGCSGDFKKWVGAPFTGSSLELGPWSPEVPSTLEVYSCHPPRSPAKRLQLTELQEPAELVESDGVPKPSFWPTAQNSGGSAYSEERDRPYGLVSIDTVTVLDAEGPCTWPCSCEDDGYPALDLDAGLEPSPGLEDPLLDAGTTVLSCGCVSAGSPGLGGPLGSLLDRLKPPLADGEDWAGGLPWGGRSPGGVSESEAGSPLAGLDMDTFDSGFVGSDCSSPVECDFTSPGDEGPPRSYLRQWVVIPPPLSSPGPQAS
- assayInfo: cell-based or functional assay
assayReadout: IC50 (nM) in Human IL-21R-TF1 Neutralization Assay
Answer with a number only, understood to be in nM.

Before answering, review these 5 worked examples.
scFv L9 (scFv) scFv: QVQLQESGPGLVKTSETLSLTCAVSGYSISSGYYWGWIRQPPGKGLEWIGSISHTGNTYYNPPLKSRVTISVDTSKNQFSLKLSSVTAADTAVYYCARGGGISRPEYWGKGTLVTVSSGGGGSGGGGSGGGGSALSSELTQDPPVSVALGQTVTLTCQGDSLRTYYASWYQQKSGQAPILLLYGKHKRPSGIPDRFSGSTSGDTASLTITGAQAEDEADYYCVARSNKGNPHVLFGGGTQLTVL ... 27.7
scFv L8 (scFv) scFv: QVQLQESGPGLVKTSETLSLTCAVSGYSISSGYYWGWIRQPPGKGLEWIGSISHTGNTYYNPPLKSRVTISVDTSKNQFSLKLSSVTAADTAVYYCARGGGISRPEYWGKGTLVTVSSGGGGSGGGGSGGGGSALSSELTQDPPVSVALGQTVTLTCQGDSLRTYYASWYQQKSGQAPILLLYGKHKRPSGIPDRFSGSTSGDTASLTITGAQAEDEADYYCTTRSTQGNPHVLFGGGTQLTVL ... 51.3
scFv L23 (scFv) scFv: QVQLQESGPGLVKTSETLSLTCAVSGYSISSGYYWGWIRQPPGKGLEWIGSISHTGNTYYNPPLKSRVTISVDTSKNQFSLKLSSVTAADTAVYYCARGGGISRPEYWGKGTLVTVSSGGGGSGGGGSGGGGSALSSELTQDPPVSVALGQTVTLTCQGDSLRTYYASWYQQKSGQAPILLLYGKHKRPSGIPDRFSGSTSGDTASLTITGAQAEDEADYYCSARSVRGNPHVLFGGGTQLTVL ... 15.3
scFv L17 (scFv) scFv: QVQLQESGPGLVKTSETLSLTCAVSGYSISSGYYWGWIRQPPGKGLEWIGSISHTGNTYYNPPLKSRVTISVDTSKNQFSLKLSSVTAADTAVYYCARGGGISRPEYWGKGTLVTVSSGGGGSGGGGSGGGGSALSSELTQDPPVSVALGQTVTLTCQGDSLRTYYASWYQQKSGQAPILLLYGKHKRPSGIPDRFSGSTSGDTASLTITGAQAEDEADYYCSTRSRKGNPHVLFGGGTQLTVL ... 60.3
scFv L18 (scFv) scFv: QVQLQESGPGLVKTSETLSLTCAVSGYSISSGYYWGWIRQPPGKGLEWIGSISHTGNTYYNPPLKSRVTISVDTSKNQFSLKLSSVTAADTAVYYCARGGGISRPEYWGKGTLVTVSSGGGGSGGGGSGGGGSALSSELTQDPPVSVALGQTVTLTCQGDSLRTYYASWYQQKSGQAPILLLYGKHKRPSGIPDRFSGSTSGDTASLTITGAQAEDEADYYCVTRSVKGNPHVLFGGGTQLTVL ... 54.4

Form field: reported IC50 (nM) in Human IL-21R-TF1 Neutralization Assay of scFv H5 (scFv) scFv: QVQLQESGPGLVKTSETLSLTCAVSGYSISSGYYWGWIRQPPGKGLEWIGSISHTGNTYYNPPLKSRVTISVDTSKNQFSLKLSSVTAADTAVYYCARFLGFGRPEYWGKGTLVTVSSGGGGSGGGGSGGGGSALSSELTQDPPVSVALGQTVTLTCQGDSLRTYYASWYQQKSGQAPILLLYGKHKRPSGIPDRFSGSTSGDTASLTITGAQAEDEADYYCNSRDSSGNPHVLFGGGTQLTVL
178

Form field: reported IC50 (nM) in Human IL-21R-TF1 Neutralization Assay of scFv L14 (scFv) scFv: QVQLQESGPGLVKTSETLSLTCAVSGYSISSGYYWGWIRQPPGKGLEWIGSISHTGNTYYNPPLKSRVTISVDTSKNQFSLKLSSVTAADTAVYYCARGGGISRPEYWGKGTLVTVSSGGGGSGGGGSGGGGSALSSELTQDPPVSVALGQTVTLTCQGDSLRTYYASWYQQKSGQAPILLLYGKHKRPSGIPDRFSGSTSGDTASLTITGAQAEDEADYYCMARSRKGNPHVLFGGGTQLTVL
33.5

Form field: reported IC50 (nM) in Human IL-21R-TF1 Neutralization Assay of scFv L13 (scFv) scFv: QVQLQESGPGLVKTSETLSLTCAVSGYSISSGYYWGWIRQPPGKGLEWIGSISHTGNTYYNPPLKSRVTISVDTSKNQFSLKLSSVTAADTAVYYCARGGGISRPEYWGKGTLVTVSSGGGGSGGGGSGGGGSALSSELTQDPPVSVALGQTVTLTCQGDSLRTYYASWYQQKSGQAPILLLYGKHKRPSGIPDRFSGSTSGDTASLTITGAQAEDEADYYCVTRNRYGNPHVLFGGGTQLTVL
257
